Test system: KM12 colon
Assay: NCI-60 one-dose screen, 48 h
Conditions: 10 µM unless noted
The panel holds about 83,000 compounds, 20% with a hit somewhere; the sample as a whole holds those more often. Active and inactive are the calls of the source. Rule for the calls: active = growth percent below 10; inactive = the rest.
Thanks in advance; please answer with one of these: active, inactive

Some entries whose results are on file:
{"columns": ["compound", "study-system", "cat"],
 "data": [
  ["O=C(O)c1cc2ccccc2cc1Nc1ccccc1", "KM12 colon", "inactive"],
  ["CCCCC(=O)Nc1nc2ccc(SCCC)cc2s1", "KM12 colon", "inactive"]
]}

Data request: GET /call?item= O=C(c1ccccc1)[C@H]1[C@@H]2CCCN2[C@]2(C(=O)Nc3ccc(F)cc32)[C@]12C(=O)Nc1ccccc12 returns the recorded outcome of this test.
Data returned: inactive

Data request: Further, for COc1cc2c(cc1OC)-c1c(oc3c4c(ccc3c1=O)OC(C)(C)C=C4)CO2 ?
Data returned: inactive

###

System: CCRF-CEM leukemia
Assay: NCI-60 one-dose screen, 48 h (100 = growth as untreated, 0 = no growth, -100 = all killed)
Settings: 10 µM unless noted
About 83,000 compounds went through this panel and 20% of them were active in at least one assay; those are over-represented in the sample as a whole.
Give measured growth for each item. Keep answers brief.
Numbers only, in %.

# example entries with known answers
{"columns": ["molecule", "growth [%]"],
 "data": [
  ["COc1ccccc1N1CCN(CC(O)COc2c(Br)c(Br)c(Br)c3c2OC(C)(C)C3)CC1 (centres undefined)", -54.6],
  ["COc1ccc(C2=NN(C(=O)COc3ccc(Cl)cc3)C(O)(c3cc(F)c(Cl)cc3Cl)C2)cc1 (centres undefined)", 7.54],
  ["COc1ccc(-c2c(NC(=O)Nc3ccc(Cl)c(C(F)(F)F)c3)cnn2-c2ccc(S(N)(=O)=O)cc2)cc1", 8.88]
]}

Proceed to the following item.
Data request: Field request: growth | item: COc1cc(-c2nc3sc(C)cn3c2/C=C2\C(=O)Nc3ccccc32)c(Br)c(OC)c1OC
Data returned: 34.7

###

System: TK-10 renal
Test: NCI-60 one-dose screen, 48 h
Conditions: 10 µM unless noted
This is part of a sample that, as a whole, favours compounds with a hit. Of some 83,000 tested, about 20% had one in any assay. Active and inactive are the calls of the source. The calls were made as follows: active = growth percent below 10; inactive = the rest.
Lab note: assign the record to one of true (active), false (inactive)

Observe how each entry below is paired with its result.
{"columns": ["compound", "cat"],
 "data": [
  ["COc1ccc(Cl)cc1NC(=O)c1cc2c([nH]1)-c1nc(NC(=O)C(C)(C)C)sc1CC2", "false"],
  ["Cc1ccccc1C[P+](c1ccccc1)(c1ccccc1)c1ccccc1", "false"],
  ["COc1ccc2c(c1)nnn1c3ncccc3c(N=O)c21", "true"],
  ["C=C1C(=O)O[C@H]2[C@H]1CC/C(C(=O)Nc1ccc(OC)c(C(N)=O)c1O)=C\\CC[C@@]1(C)O[C@@H]21", "false"],
  ["CCC1S/C(=N\\N=C(/C)c2ccco2)N(c2ccccc2)C1=O (stereo unspecified)", "false"]
]}

Data request: Could you kindly confirm the outcome this assay logged for C=C1C(=O)O[C@H]2[C@H]1CC/C(COC(=O)c1cc(OC)c(OC)c(OC)c1)=C\CC[C@@]1(C)O[C@@H]21 ?
Data returned: true

Data request: Follow-up entry: Cc1c(F)cccc1NC(=O)c1sc2nc3c(cc2c1N)CCCCC3
Data returned: false

Data request: // repeat for COc1cc(-c2nc3ccccc3s2)ccc1OCc1nc2n(n1)S(=O)(=O)c1ccccc1N2c1ccccc1 and report
Data returned: false

Data request: Consider next the compound CC(=O)N1N=C(CCC(=O)c2nc3ccc([N+](=O)[O-])cc3[nH]2)OC1c1ccc(O)cc1 (stereo unspecified) in the same way.
Data returned: false

Data request: Next compound up: CC(=O)Cc1cccnc1
Data returned: false
